B1: Chromodomain-helicase-DNA-binding protein 5, residues 338 to 390; numbered along this chain, Q8TDI0 (parent)
chain: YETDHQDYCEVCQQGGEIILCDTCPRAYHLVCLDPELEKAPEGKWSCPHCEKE

# Variants of: B1
# Measurement protocol: abundance fitness (aPCA) (normalised: wild type 0, dead -1); higher = more abundant; growth selection in yeast, the domain comes from the species named
# Assay setup: Homo sapiens
Could you please report measured abundance fitness for the items listed next?
// no unit string in output, number only

Exercise: Please report the recorded abundance fitness for D34K .
Key: -0.347

Exercise: Please report the recorded abundance fitness for I19M .
Key: 0.256

Exercise: Please report the recorded abundance fitness for K52G .
Key: 0.028

Exercise: Please report the recorded abundance fitness for T23M .
Key: 0.114

Exercise: Please report the recorded abundance fitness for P41K .
Key: -0.118

Exercise: Please report the recorded abundance fitness for P35L .
Key: -0.078

Exercise: Please report the recorded abundance fitness for D34C .
Key: -0.161

Exercise: Please report the recorded abundance fitness for P25M .
Key: -0.167

Exercise: Please report the recorded abundance fitness for V31L .
Key: -0.104

Exercise: Please report the recorded abundance fitness for P48Y .
Key: -0.022

Exercise: Please report the recorded abundance fitness for K44M .
Key: 0.116

Exercise: Please report the recorded abundance fitness for I19L .
Key: 0.121

Exercise: Please report the recorded abundance fitness for D34H .
Key: 0.039

Exercise: Please report the recorded abundance fitness for A40K .
Key: -0.218
